System: ATP;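 also: ATP exposure 15 min at 22 °C before imaging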
Test Protocol: switch fluorescence ratio, 500 uM ATP over buffer (Cy3 cluster intensity, sum of 5 cycles each) (fold (ratio)); higher = stronger signal-on switching upon ATP binding; sequences stand for … in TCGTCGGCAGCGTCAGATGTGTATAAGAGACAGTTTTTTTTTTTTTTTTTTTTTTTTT…TC
Assay Context: aptamer strand: ATP DNA aptamer (quencher-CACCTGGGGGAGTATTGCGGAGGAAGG + anchor), 100 nM annealed; ATP concentration: 500 uM
# switch fluorescence ratio listing for each entry below
Keep the answer to the number alone.

Sequence Input	switch fluorescence ratio
GTTTTTCTTA	0.978
AAATGGTCGG	0.974
CGGGTATAGC	0.996
TGTGGCTCTG	0.957
AGTCTCTGGG	0.974
GGGGAAAAAA	1.06

Exercise: Bench note: what switch fluorescence ratio did TGCGTATTCT show?
Key: 0.967

Exercise: Then this sequence: AAAAATAAGC
Key: 1.03

Exercise: Also, ATGTTAACGG please.
Key: 1.01

Exercise: Quick one: TGTGATGAGT
Key: 0.992

Exercise: GGGTGACGGG , same question.
Key: 1.01

* * *

Tested on: ATP;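 also: ATP exposure 15 min at 22 °C before imaging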
Test Protocol: switch fluorescence ratio, 500 uM ATP over buffer (Cy3 cluster intensity, sum of 5 cycles each) (fold (ratio)); higher = stronger signal-on switching upon ATP binding; sequences stand for … in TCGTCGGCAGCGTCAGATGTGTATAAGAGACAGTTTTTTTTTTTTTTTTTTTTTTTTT…TC
Assay Context: aptamer strand: ATP DNA aptamer (quencher-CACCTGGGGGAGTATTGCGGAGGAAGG + anchor), 100 nM annealed; ATP concentration: 500 uM
Measured Parameter: switch fluorescence ratio

Sequence Input	Reported Measurement
TTGGGACAAA	1.05
TAGGGTATGT	1.01
GCGGAAAGGA	1

Now, please, on to the next sequence.
Exercise: Item GTGAAAACCG has what recorded switch fluorescence ratio?
Key: 1.03

* * *

System: ATP;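 also: ATP exposure 15 min at 22 °C before imaging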
Test Protocol: switch fluorescence ratio, 500 uM ATP over buffer (Cy3 cluster intensity, sum of 5 cycles each) (fold (ratio)); higher = stronger signal-on switching upon ATP binding; sequences stand for … in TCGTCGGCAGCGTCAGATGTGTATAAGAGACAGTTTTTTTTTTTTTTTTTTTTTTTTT…TC
Assay Context: aptamer strand: ATP DNA aptamer (quencher-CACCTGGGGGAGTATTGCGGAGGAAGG + anchor), 100 nM annealed; ATP concentration: 500 uM
# switch fluorescence ratio >= 1 gives 1, anything below gives 0

Here's what some known entries look like.
Sequence Input	Label
CCCCAGGCAT	1
AAATAGATCG	1
ACGACATTTT	1

Exercise: Does CCACCATATT have a reported switch fluorescence ratio of at least 1?
Key: 1

Exercise: Repeat with GGAGAAGAGT
Key: 1

Exercise: How about this sequence: GGGAGCTGTT
Key: 1

* * *

# switch fluorescence ratio per record follows
Tested on: ATP;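 also: ATP exposure 15 min at 22 °C before imaging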
Test Protocol: switch fluorescence ratio, 500 uM ATP over buffer (Cy3 cluster intensity, sum of 5 cycles each) (fold (ratio)); higher = stronger signal-on switching upon ATP binding; sequences stand for … in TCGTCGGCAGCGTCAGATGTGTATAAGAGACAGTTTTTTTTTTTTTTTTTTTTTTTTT…TC
Assay Context: aptamer strand: ATP DNA aptamer (quencher-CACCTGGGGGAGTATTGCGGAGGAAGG + anchor), 100 nM annealed; ATP concentration: 500 uM
No unit in the answer, only the number.

Reference set (2 entries):
Sequence Input	switch fluorescence ratio
GCAGGAAATT	0.973
CAAGTGAAGC	0.954

Exercise: Request: switch fluorescence ratio, test system ATP, entry ACGGCGCTGG;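 also: ATP exposure 15 min at 22 °C before imaging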
Key: 1.02

Exercise: What would you report for CATTCTGCGC ?
Key: 1.16

Exercise: Now this one: TAAGAGATGT
Key: 0.978

Exercise: Here is the next sequence: GTGGGCAGGT
Key: 0.988

Exercise: What do you have for TGGTAACAGG ?
Key: 1.01

Exercise: What about TTTTATAAGA ?
Key: 1.05

Exercise: Quick one: ACCGGGCGGC
Key: 1.05

Exercise: Proceed to AGCTGAAGTT
Key: 0.989

Exercise: Continue with GCCTTCTGGA
Key: 1.05

Exercise: Would you kindly repeat that for TTTTCCTGGG ?
Key: 1.03

Exercise: Same question, TGTGTTCCGA this time
Key: 0.997

Exercise: Moving on to GTTAAAAGGG
Key: 1.01

Exercise: What about this sequence? AGAACGCGTA
Key: 1.03

* * *

Tested on: ATP;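 also: ATP exposure 15 min at 22 °C before imaging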
Test Protocol: switch fluorescence ratio, 500 uM ATP over buffer (Cy3 cluster intensity, sum of 5 cycles each) (fold (ratio)); higher = stronger signal-on switching upon ATP binding; sequences stand for … in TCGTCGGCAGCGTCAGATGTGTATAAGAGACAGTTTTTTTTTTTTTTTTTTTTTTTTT…TC
Assay Context: aptamer strand: ATP DNA aptamer (quencher-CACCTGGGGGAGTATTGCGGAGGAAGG + anchor), 100 nM annealed; ATP concentration: 500 uM
Measured Parameter: switch fluorescence ratio
Kindly provide the number alone.

Field: example entries. Status: answers known.
Sequence Input	Tested Target	Reported Measurement
TGCGCCTTAC	ATP	3.37
ATTAATTCGT	ATP	0.996
TTAGTGTGCT	ATP	1

// next entry
Exercise: switch fluorescence ratio lookup needed for ATAGTCAAGG , thanks.
Key: 0.982

* * *

System: ATP;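 also: ATP exposure 15 min at 22 °C before imaging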
Test Protocol: switch fluorescence ratio, 500 uM ATP over buffer (Cy3 cluster intensity, sum of 5 cycles each) (fold (ratio)); higher = stronger signal-on switching upon ATP binding; sequences stand for … in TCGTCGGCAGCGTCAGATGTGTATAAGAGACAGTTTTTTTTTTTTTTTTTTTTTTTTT…TC
Assay Context: aptamer strand: ATP DNA aptamer (quencher-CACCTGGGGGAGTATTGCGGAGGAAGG + anchor), 100 nM annealed; ATP concentration: 500 uM
Measured Parameter: switch fluorescence ratio
I only need the number, thanks.

As a guide, the following entries are already answered.
Sequence Input	Tested Target	Reported Measurement
GCTTGTTAAA	ATP	0.994
TCGTTCGTCG	ATP	1.04
AAAAGGGGAT	ATP	0.997
GGAAAGATAG	ATP	1.02
AATGGGAATG	ATP	1.01
TTGGTGCGGG	ATP	0.98
GGTAAGTTTG	ATP	1.03

Exercise: Param item = AGGTGAAATC ; retrieve measured switch fluorescence ratio.
Key: 1.26

* * *

System: ATP;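 also: ATP exposure 15 min at 22 °C before imaging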
Test Protocol: switch fluorescence ratio, 500 uM ATP over buffer (Cy3 cluster intensity, sum of 5 cycles each) (fold (ratio)); higher = stronger signal-on switching upon ATP binding; sequences stand for … in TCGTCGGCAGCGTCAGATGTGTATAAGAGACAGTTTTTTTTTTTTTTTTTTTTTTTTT…TC
Assay Context: aptamer strand: ATP DNA aptamer (quencher-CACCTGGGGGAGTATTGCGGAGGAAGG + anchor), 100 nM annealed; ATP concentration: 500 uM
Examples of sequences with documented switch fluorescence ratio follow.
Please give only the number in your answer, with no unit.

Sequence Input	Tested Target	switch fluorescence ratio
GGATGGAGGT	ATP	1
GGGAGCGCCG	ATP	1.03
TAGAGGGGTG	ATP	0.991
TGAATGAATA	ATP	1.03
AGGTAGGCAT	ATP	1
TGGTGTTTTT	ATP	0.992

Exercise: May I ask what switch fluorescence ratio has been recorded for TGAAAATGCG ?
Key: 1.01

Exercise: Param item: GTTGTTTGTA
Key: 0.971

Exercise: Same lookup for AGGATCTTGT , please.
Key: 0.994

Exercise: Then this sequence: TTTTCAGGGG
Key: 1.03

Exercise: Next record, please: TGGCAGTCTA
Key: 0.979

Exercise: Now the sequence GGGAGTATGG
Key: 0.977

Exercise: Repeat with CTAGGTTGAG
Key: 0.983

Exercise: Next entry: ACGGACAATC
Key: 1.47

* * *

Measured switch fluorescence ratio by item
Test system: ATP;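 also: ATP exposure 15 min at 22 °C before imaging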
Test Protocol: switch fluorescence ratio, 500 uM ATP over buffer (Cy3 cluster intensity, sum of 5 cycles each) (fold (ratio)); higher = stronger signal-on switching upon ATP binding; sequences stand for … in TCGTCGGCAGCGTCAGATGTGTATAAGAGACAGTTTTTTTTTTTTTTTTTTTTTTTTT…TC
Assay Context: aptamer strand: ATP DNA aptamer (quencher-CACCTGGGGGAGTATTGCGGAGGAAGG + anchor), 100 nM annealed; ATP concentration: 500 uM
# print the numeric value only

Sequence Input	Reported Measurement
TAAAGATTTT	1.01
TCCAGCCCGT	1.02
TTTTACGCCT	1.02
TGATAGGTCT	0.986
CTAGTATATT	0.993

Exercise: Reported switch fluorescence ratio, sequence CATATTCGCT : ____
Key: 1.01

Exercise: Query TTTGTGGGAT next
Key: 0.998
